Assignment: determine reported Ki for the given compounds.
TARGET_UNDER_TEST: μ-opioid receptors (Rattus norvegicus, UniProt P33535)
Construct: A crude membrane fraction was prepared from Wistar rat brains and spinal cords; from tissue; host or cells: Wistar rat brain (without cerebellum), crude membrane fraction
Sequence (P33535 whole entry): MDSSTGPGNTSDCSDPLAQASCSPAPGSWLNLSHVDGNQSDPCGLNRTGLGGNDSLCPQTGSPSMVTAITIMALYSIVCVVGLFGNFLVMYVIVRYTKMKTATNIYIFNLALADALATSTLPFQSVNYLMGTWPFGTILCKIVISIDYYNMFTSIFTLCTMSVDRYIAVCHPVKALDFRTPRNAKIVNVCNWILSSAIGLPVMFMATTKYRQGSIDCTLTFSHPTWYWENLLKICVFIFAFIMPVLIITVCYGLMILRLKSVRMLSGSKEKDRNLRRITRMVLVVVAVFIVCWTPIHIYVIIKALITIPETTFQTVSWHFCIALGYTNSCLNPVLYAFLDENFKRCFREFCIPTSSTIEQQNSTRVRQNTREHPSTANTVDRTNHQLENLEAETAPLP
EXPERIMENTAL_DETAILS: Receptor binding assay, [3H]DAMGO displacement in rat brain membranes
Answers are plain numbers, in nM.

These solved cases illustrate the format of a correct answer.
{"columns": ["COMPOUND", "Ki / nM"],
 "data": [
  ["COc1ccc2c3c1O[C@H]1[C@@H](O)CC[C@H]4[C@@H](C2)N(C)CC[C@@]341 [Dihydrocodeine]", 122],
  ["[2H][C@@H]1[C@H]([2H])[C@H]2[C@H]3Cc4ccc(OC)c5c4[C@@]2(CCN3C)[C@@H](O5)[C@H]1O", 34.1]
]}

Sure, the documented Ki for [2H][C@@H]1[C@H]([2H])[C@H]2[C@H]3Cc4ccc(OC(C)=O)c5c4[C@@]2(CCN3C)[C@@H](O5)[C@H]1OC(C)=O is 2.89

Reference for the values: patent US9447108B2
